Consider the following binders; for each one, report its kon.
Target: T1, Canine IL31 (canine)
T1 chain: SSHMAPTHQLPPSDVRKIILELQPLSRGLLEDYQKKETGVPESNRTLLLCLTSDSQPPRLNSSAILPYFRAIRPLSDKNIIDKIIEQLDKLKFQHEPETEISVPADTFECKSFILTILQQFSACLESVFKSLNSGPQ
Assay: SPR, BIAcore 8K, Protein A sensor chip
A number alone suffices; assume M⁻¹ s⁻¹.

INPUT: # return recorded kon for input cmVH3 + cmVL3 chimeric antibody (antibody, human IgG1, V domains shown, also called analyte 6) VH: EVQLVESGPSLVKPGGSLRLTCSVTGDSITSGYWKWIRKFPGNKLEYMGYISYSGITDYNPSLKSRITISRDTSKNQYYLQLNSVTTEDTATYYCARYANYGYAMDYWGQGTSVTVSS VL: DIVMTQSPASLSVSLGQRATISCRASESVDTYGRSFMHWYQQKPGQSPKLLIYRASNLESGIPARFGGSGSGTDFTLTIDPVQADDVATYYCHQSYEDPWTFGGGTKLEIK
OUTPUT: 216000

INPUT: # return recorded kon for input cmVH2 + cmVL2 chimeric antibody (antibody, human IgG1, V domains shown, also called analyte 3) VH: EVQLVESGPSLVKPGGSLRLTCSVTGDSITSGYWKWIRKFPGNKLEYMGYISYSGITDYNPSLKSRITISRDTSKNQYYLQLNSVTTEDTATYYCARYPNYGYAMDYWGQGTSVTVSS VL: DIVMTQSPASLSVSLGQRATISCRASESVDTYGRSFMHWYQQKPGQSPKLLIYRASNLESGIPARFGGSGSGTDFTLTIDPVQADDVATYYCYQSYEDPWTFGGGTKLEIK
OUTPUT: 174000

INPUT: # return recorded kon for input cmVH1 + cmVL1 chimeric antibody (antibody, human IgG1, V domains shown, also called analyte 2) VH: EVQLVESGPSLVKPGGSLRLTCSVTGDSITSGYWKWIRKFPGNKLEYMGYISYSGITDYNPSLKSRITISRDTSKNQYYLQLNSVTTEDTATYYCARYGNYGYAMDYWGQGTSVTVSS VL: DIVMTQSPASLSVSLGQRATISCRASESVDTYGRSFMHWYQQKPGQSPKLLIYRASNLESGIPARFGGSGSGTDFTLTIDPVQADDVATYYCQQSYEDPWTFGGGTKLEIK
OUTPUT: 228000

Values compiled from patent US20220324960A1.
